pEC50 values, listed per item
Target: ATR (Homo sapiens (Human), UniProt Q13535)
Sequence (Q13535 whole entry): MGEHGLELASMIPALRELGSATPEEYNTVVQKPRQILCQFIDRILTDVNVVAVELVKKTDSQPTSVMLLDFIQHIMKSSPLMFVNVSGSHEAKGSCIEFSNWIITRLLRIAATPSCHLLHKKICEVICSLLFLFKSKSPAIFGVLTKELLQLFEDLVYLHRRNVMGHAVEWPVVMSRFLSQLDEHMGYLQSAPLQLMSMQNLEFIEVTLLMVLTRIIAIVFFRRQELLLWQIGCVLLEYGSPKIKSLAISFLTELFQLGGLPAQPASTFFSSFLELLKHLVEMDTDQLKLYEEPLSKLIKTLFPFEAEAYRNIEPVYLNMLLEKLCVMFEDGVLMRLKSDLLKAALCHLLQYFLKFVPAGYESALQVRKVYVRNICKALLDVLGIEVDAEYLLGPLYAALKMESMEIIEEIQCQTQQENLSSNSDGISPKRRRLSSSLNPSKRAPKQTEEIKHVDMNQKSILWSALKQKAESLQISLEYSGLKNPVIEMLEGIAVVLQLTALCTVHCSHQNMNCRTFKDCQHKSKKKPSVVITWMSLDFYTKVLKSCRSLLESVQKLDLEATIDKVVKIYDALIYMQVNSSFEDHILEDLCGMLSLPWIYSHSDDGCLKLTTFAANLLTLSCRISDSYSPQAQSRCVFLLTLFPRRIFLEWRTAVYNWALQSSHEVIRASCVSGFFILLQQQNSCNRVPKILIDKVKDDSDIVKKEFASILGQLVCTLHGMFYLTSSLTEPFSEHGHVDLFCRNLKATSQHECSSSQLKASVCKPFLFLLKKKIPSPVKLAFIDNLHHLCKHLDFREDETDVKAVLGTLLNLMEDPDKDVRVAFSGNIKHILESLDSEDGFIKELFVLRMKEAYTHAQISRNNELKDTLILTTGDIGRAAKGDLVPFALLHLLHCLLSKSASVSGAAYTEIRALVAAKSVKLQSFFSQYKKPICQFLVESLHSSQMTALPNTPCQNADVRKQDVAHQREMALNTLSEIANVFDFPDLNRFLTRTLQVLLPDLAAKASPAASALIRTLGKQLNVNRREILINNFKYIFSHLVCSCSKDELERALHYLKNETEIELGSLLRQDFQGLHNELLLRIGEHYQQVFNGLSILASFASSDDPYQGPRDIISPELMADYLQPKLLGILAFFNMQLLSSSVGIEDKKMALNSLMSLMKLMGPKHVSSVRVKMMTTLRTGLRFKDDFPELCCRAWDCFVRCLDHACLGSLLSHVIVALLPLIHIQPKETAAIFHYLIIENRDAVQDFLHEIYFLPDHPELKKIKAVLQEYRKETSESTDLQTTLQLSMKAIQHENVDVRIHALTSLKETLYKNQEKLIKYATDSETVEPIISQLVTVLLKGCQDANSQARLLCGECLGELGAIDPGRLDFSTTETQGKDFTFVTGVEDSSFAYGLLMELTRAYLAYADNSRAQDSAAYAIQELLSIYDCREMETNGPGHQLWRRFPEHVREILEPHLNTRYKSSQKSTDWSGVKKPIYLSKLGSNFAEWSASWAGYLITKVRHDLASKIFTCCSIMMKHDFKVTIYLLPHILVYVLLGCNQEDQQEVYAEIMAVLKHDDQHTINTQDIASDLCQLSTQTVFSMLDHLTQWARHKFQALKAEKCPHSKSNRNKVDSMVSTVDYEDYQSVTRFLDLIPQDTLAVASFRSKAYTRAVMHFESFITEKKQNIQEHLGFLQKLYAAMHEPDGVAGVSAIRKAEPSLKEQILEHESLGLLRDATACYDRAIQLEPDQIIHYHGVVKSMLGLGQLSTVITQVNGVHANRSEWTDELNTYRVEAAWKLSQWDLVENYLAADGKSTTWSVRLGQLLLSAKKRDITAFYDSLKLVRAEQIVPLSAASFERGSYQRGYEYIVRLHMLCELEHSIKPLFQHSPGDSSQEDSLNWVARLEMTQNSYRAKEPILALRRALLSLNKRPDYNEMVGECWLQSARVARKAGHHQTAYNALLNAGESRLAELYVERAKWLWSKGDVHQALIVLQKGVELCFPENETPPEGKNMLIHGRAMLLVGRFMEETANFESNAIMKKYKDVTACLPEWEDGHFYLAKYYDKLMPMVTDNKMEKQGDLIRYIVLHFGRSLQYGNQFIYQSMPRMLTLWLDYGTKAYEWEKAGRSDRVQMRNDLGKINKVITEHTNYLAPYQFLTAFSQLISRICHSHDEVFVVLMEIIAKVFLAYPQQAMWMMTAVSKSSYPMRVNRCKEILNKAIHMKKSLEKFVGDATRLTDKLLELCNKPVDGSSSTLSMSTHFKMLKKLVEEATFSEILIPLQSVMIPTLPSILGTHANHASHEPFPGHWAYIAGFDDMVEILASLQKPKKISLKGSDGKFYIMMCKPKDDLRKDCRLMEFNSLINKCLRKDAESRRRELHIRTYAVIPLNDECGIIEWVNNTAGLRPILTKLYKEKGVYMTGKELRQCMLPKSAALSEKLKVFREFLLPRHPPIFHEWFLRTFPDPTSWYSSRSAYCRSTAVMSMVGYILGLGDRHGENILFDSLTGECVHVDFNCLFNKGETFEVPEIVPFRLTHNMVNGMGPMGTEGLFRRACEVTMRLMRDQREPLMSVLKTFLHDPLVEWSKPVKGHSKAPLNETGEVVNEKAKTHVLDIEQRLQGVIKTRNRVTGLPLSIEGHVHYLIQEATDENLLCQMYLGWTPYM
Experiment: Cellular ATR inhibition, western blot of CHK1(S345) phosphorylation in hydroxyurea treated cells
Assay type: cell-based
Conditions: HT29 cells, hydroxyurea […]
pEC50: −log10 of the molar value.

- structure-smiles-string: "CNc1nc2ccc(F)cc2n1-c1nc2c(c(C3(S(C)(=O)=O)CCC3)n1)OC[C@@H]1COCCN21"
  pEC50: "6.00 to 7.00"
- structure-smiles-string: "CNc1nc2ccc(Cl)cc2n1-c1nc2c(c(C(C)(C)S(C)(=O)=O)n1)OC[C@@H]1COCCN21"
  pEC50: "< 6.00"
- structure-smiles-string: "CNc1nc2ccc(F)cc2n1-c1nc2c(c(C(C)(C)S(C)(=O)=O)n1)OC[C@@H]1COCCN21"
  pEC50: "6.00 to 7.00"
- structure-smiles-string: "CNc1nc2cc(Cl)ccc2n1-c1nc2c(c(C(C)(C)S(C)(=O)=O)n1)OC[C@@H]1COCCN21"
  pEC50: "< 6.00"
- structure-smiles-string: "CNc1nc2cc(F)ccc2n1-c1nc2c(c(C3(S(C)(=O)=O)CCC3)n1)OC[C@@H]1COCCN21"
  pEC50: "6.00 to 7.00"
- structure-smiles-string: "CNc1nc2cc(F)ccc2n1-c1nc2c(c(C(C)(C)S(C)(=O)=O)n1)OC[C@@H]1COCCN21"
  pEC50: "6.00 to 7.00"
- structure-smiles-string: "CNc1nc2cc(C#N)ccc2n1-c1nc2c(c(C(C)(C)S(C)(=O)=O)n1)OC[C@@H]1COCCN21"
  pEC50: "< 6.00"
- structure-smiles-string: "CNc1nc2ccc(C#N)cc2n1-c1nc2c(c(C(C)(C)S(C)(=O)=O)n1)OC[C@@H]1COCCN21"
  pEC50: "< 6.00"
- structure-smiles-string: "CNc1nc2ccc(Cl)cc2n1-c1nc2c(c(C3(S(C)(=O)=O)CC3)n1)OC[C@@H]1COCCN21"
  pEC50: "< 6.00"
- structure-smiles-string: "CNc1nc2cc(Cl)ccc2n1-c1nc2c(c(C3(S(C)(=O)=O)CC3)n1)OC[C@@H]1COCCN21"
  pEC50: "< 6.00"
- structure-smiles-string: "CC(C)(c1nc(-n2c(N3CCOCC3)nc3ccccc32)nc2c1OC[C@@H]1COCCN21)S(C)(=O)=O"
  pEC50: "< 6.00"
- structure-smiles-string: "CC(C)(c1nc(-n2c(N)nc3ccccc32)nc2c1OC[C@@H]1COCCN21)S(C)(=O)=O"
  pEC50: "6.00 to 7.00"

* * *

Molecular target: CYP 1A2 (Homo sapiens (Human))
Sequence (P05177 whole entry): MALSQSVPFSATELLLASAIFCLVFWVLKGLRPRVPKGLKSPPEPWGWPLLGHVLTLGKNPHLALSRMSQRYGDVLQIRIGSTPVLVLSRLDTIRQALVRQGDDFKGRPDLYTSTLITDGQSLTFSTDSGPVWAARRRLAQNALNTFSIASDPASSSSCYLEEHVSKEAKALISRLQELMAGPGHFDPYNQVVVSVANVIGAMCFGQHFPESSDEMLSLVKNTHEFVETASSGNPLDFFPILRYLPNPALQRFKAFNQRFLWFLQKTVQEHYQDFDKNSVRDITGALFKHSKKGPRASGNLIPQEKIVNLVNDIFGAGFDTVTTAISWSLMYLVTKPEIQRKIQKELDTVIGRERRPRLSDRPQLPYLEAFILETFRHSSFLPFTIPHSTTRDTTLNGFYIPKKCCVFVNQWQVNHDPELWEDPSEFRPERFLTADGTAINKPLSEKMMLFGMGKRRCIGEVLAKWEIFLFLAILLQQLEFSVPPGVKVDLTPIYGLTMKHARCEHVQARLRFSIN
Assay: CYP inhibition assay (P450-Glo)
Format: in vitro ADME
Conditions: recombinant CYP
pIC50: −log10 of the molar value.

- compound: "CS(=O)(=O)C1(c2nc(-c3cccc4[nH]ccc34)nc3c2OC[C@@H]2COCCN32)CCOCC1 [Example 3]"
  system-name: "CYP 1A2 (Homo sapiens (Human))"
  pIC50: "< 4.30"
- compound: "CNc1nc2ccccc2n1-c1nc2c(c(C(C)(C)S(C)(=O)=O)n1)OC[C@@H]1COCCN21 [Example 11]"
  system-name: "CYP 1A2 (Homo sapiens (Human))"
  pIC50: "< 4.30"
